Tested on: TK-10 renal
Experiment: NCI-60 one-dose screen, 48 h (100 = growth as untreated, 0 = no growth, -100 = all killed)
Details: 10 µM unless noted
Compounds without any hit were thinned out: in the full panel of roughly 83,000, 20% have a hit.
Threshold check on growth: strictly below 80% is Satisfied; on or above 80% is Not satisfied.

CCN1CCC[C@H]1c1cc(O)c2c(c1OC)C[C@H]1C[C@H]3[C@H](N)C(=O)C(C(N)=O)=C(O)[C@@]3(O)C(=O)C1=C2O	Satisfied
CCN1CCN(Cc2ccc(NC(=O)c3cccc(C#Cc4cccc5[nH]nc(N)c45)c3)cc2C(F)(F)F)CC1	Satisfied
COC(=O)/C=C1\SC(=Nc2ccc(F)cc2)N(CCc2c[nH]c3ccccc23)C1=O	Not satisfied

Lab log: compare recorded growth with 80%; is it strictly lower for `O=C(O)CCNC1CCCCC1` ? Not satisfied

Is the reported growth for `C=C1C(=O)O[C@H]2[C@H]1CC/C(COC(=O)CCCCCCC(=O)OC/C1=C/CC[C@@]3(C)O[C@H]3[C@H]3OC(=O)C(=C)[C@@H]3CC1)=C\CC[C@@]1(C)O[C@@H]21` strictly below 80%? Satisfied

growth under 80%? Item: `CCCn1c(N)c(C(N)=O)sc1=S` Not satisfied

Does the reported growth of the following molecule sit strictly below 80%? `CCOC(=O)C(=Cc1c(-c2ccccc2)[nH]c2ccccc12)C(=O)OCC` Not satisfied

In plain terms, does `Cc1cccc(C)c1NCc1nnc(-c2ccco2)o1` come in under 80% for growth? Not satisfied

Lab log: compare recorded growth with 80%; is it strictly lower for `O=C(Nc1cc(=O)[nH]c(=O)[nH]1)C(Cl)Cl` ? Not satisfied
